- target system: S protein of SARS-CoV Urbani strain (on virus) (SARS-CoV Urbani strain, UniProt P59594 14-1255)
- method description: cell-based or functional assay
// values below are reported Neutralizing titer 200TCID50

binder="3A7 (antibody, V domains shown) VH: QVQLVQSGAEVKKPGASVKVSCKASGYTFTSYGISWVRQAPGQGLEWMGWISAYNGNTNYAQKLQGRVTMTTDTSTSTAYMELRSLRSDDTAVYYCAVGRYLDYWGQGTLVTVSS VL: DIQMTQSPSSLSASVGDRVTITCRASQDIRNDLGWYQQKPGKAPKRLIYAASSLQSGVPSRFSGSGSGTEFTLTISSLQPEDFATYYCLQYNSYPLTFGGGTKVEIK" value_measured="0.195 µg/mL"

IN: What Neutralizing titer 200TCID50 value was documented for this binder, 5E4 (antibody, V domains shown) VH: QVHLVQSGAEVKKPGASVKVSCKASGYTFTGYYVHWVRQAPGQGLEWMGWINPNSGGTNYAQKFQGRVTMTRDTSISTAYMELSRLRSDDTAVYFCAGGRYLDYWGQGTLVTVSS VL: DIQMTQSPSSLSASVGDRVTITCRASQGIRNDLGWYQQKPGKAPKRLIYAASSLQSGVPSRFSGSGSGTEFTLTISSLQPEDFATYYCLQYNSYPITFGQGTRLEIK ?
OUT: 12.5 µg/mL

IN: What Neutralizing titer 200TCID50 value was documented for this binder, 4G2 (antibody, V domains shown) VH: QVQLVQSGAEVKKPGASVKVSCKASGFPFTDYYMHWVRQAPGQGLEWMGWINSNSGGTNYAQKFQGRVTMTRDTSISTAYMELSRLRSDDTAVYYCARGPHSFGSGSYPFDYWGQGTLVTVSS VL: DIQMTQSPSSLSASVGDRVTITCRASQGIRSDLGWYQQRPGKTPKRLIYAASSLQSGVPSRFSGSGSGTEFTLTISSLQPEDFATYYCQQYNSYPLTFGGGTKVEIK ?
OUT: 0.781 µg/mL

IN: What Neutralizing titer 200TCID50 value was documented for this binder, 6B1 (antibody, V domains shown) VH: QVQLVESGGGVVQPGTSLRLSCAASGFTFSSYGIHWVRQAPGKGLEWVAVIWYDGSNKFHADSVKGRFTISRDNSKNTLYLQMNSLRAEDTAVYYCARDPLGYCSSTSCSYFDYWGQGTLVTVSS VL: DIQMTQSPSSVSASVGDRVTITCRASQGISNWLAWYQQKPGKAPKLLIYAASSLQSGVPSRFSGSGSGTDFTLTISSLQPEDFATYYCQQANNFPLTFGGGTKVEIK ?
OUT: 3.12 µg/mL

IN: What Neutralizing titer 200TCID50 value was documented for this binder, 5D6 (antibody, V domains shown) VH: QVQLVQSGAEVKKPGASVKVSCKASGYTFTSYGISWVRQAPGQGLEWMGWISAYNGNTNYAQKLQGRVTMTTDTSTNTAYMELRSLRSDDTAVYYCAVGRYLDYWGQGTLVTVSS VL: DIQMTQSPSSLSASVGDRVTITCRASQDIRNDLGWYQQKPGKAPKRLIYAASSLQSGVPSRFSGSGSGTEFTLTISSLQPEDFATYYCLQYNSYPLTFGGGTKVEIK ?
OUT: 0.195 µg/mL

IN: What Neutralizing titer 200TCID50 value was documented for this binder, 3H12 (antibody, V domains shown) VH: QVQLQESGPGLVKPSETLSLTCTVSDGSISSFYWSWIRQPPGKGLEWIGYIYYSGSTNYNPSLKSRVTISVDTSKNQFSLKLSSVTAADTAVYYCARDYDILTGYSNYYGMDVWGQGTTVTVSS VL: DIQMTQSPSSLSASVGDRVTITCRASQGIRNDLGWYQQKPGKAPKRLIYAASSLQSGVPSRFSGSGSGTEFTLTISSLQPEDFATYYCLQHNSYPFTFGPGTKLDIK ?
OUT: 3.12 µg/mL

IN: What Neutralizing titer 200TCID50 value was documented for this binder, 6C1 (antibody, V domains shown) VH: QVQLVQSGAEVKKPGASVKVSCKASGFPFTDYYMHWVRQAPGQGLEWMGWINSNSGGTNYAQKFQGRVTMTRDTSISTAYMELSRLRSDDTAVYYCARGPHSFGSGSYPFDYWGQGTLVTVSS VL: DIQMTQSPSSLSASVGDRVTITCRASQGIRSDLGWYQQRPGKTPKRLIYAASSLQSGVPSRFSGSGSGTEFTLTISSLQPEDFATYYCQQYNSYPLTFGGGTKVEIK ?
OUT: 0.781 µg/mL

IN: What Neutralizing titer 200TCID50 value was documented for this binder, 3C7 (antibody, V domains shown) VH: QVQLVESGGGVVQPGTSLRLSCAASGFTFSSYGIHWVRQAPGKGLEWVAVIWYDGSNKFYADSVKGRFTISRDNSKNTLYLQMNSLRAEDTAVYYCARDPLGYCSSTSCSYFDYWGQGTLVTVSS VL: DIQMTQSPSSVSASVGDRVTITCRASQGISNWLAWYQQKPGKAPKLLIYAASSLQSGVPSRFSGSGSGTDFTLTIRSLQPEDFATYYCQQANNFPLTFGGGTKVEIK ?
OUT: 12.5 µg/mL

IN: What Neutralizing titer 200TCID50 value was documented for this binder, 5D3 (antibody, V domains shown) VH: QVQLVQSGAEVKKPGASVKVSCKASGYTFTSYGISWVRQAPGQGLEWMGWISAYNGNTNYAQKLQGRVTMTTDTSTSTAYMELRSLRSDDTAVYYCAVGRYLDYWGQGTLVTVSS VL: DIQMTQSPSSLSASVGDRVTITCRASQDIRNDLGWYQQKPGKAPKRLIYAASSLQSGVPSRFSGSGSGTEFTLTISSLQPEDFATYYCLQYNSYPLTFGGGTKVEIK ?
OUT: 0.195 µg/mL

IN: What Neutralizing titer 200TCID50 value was documented for this binder, 1B5 (antibody, V domains shown) VH: QVQLVESGGGVVQPGRSLRLSCAASGFTFSSYGMHWVRQAPGKGLEWVAVIWYDGSNKYYADSVKGRFTISRDNSKNTLYLQMNSLRAEDTAVYYCARGDFYWFDPWGQGTLVTVSS VL: DIQMTQSPSSLSASVGDRVTITCRASQGIRSDLGWYQQRPGKTPKRLIYAASSLQSGVPSRFSGSGSGTEFTLTISSLQPEDFATYYCQQYNSYPLTFGGGTKVEIK ?
OUT: 0.195 µg/mL

IN: What Neutralizing titer 200TCID50 value was documented for this binder, 6B8 (antibody, V domains shown) VH: QVQLVQSGAEVKKPGASVKVSCKASGYTFTSYGISWVRQAPGQGLEWMGWISAYNGNTNYAQKLQGRVTMTTDTSTSTAYMELRSLRSDDTAVYYCAVGRYLDYWGQGTLVTVSS VL: DIQMTQSPSSLSASVGDRVTITCRASQDIRNDLGWYQQKPGKAPKRLIYAASSLQSGVPSRFSGSGSGTEFTLTISSLQPEDFATYYCLQYNSYPLTFGGGTKVEIK ?
OUT: 0.781 µg/mL
